Origin of measurements: ChEMBL document CHEMBL1144581

Measured Activity accompanies every entry in the list below.
Species: Rattus norvegicus
Experiment: Antisecretory activity in rat pylorus ligation-induced ulcer model determined by ratio of total acidity inhibition in drug treated to untreated control
Assay type: functional

{"Molecule": "O=C(N[C@@H](COCc1ccccc1)C(=O)O)OCc1ccccc1", "Activity": 0.5}
{"Molecule": "O=C(O)[C@@H]1CCC(=O)N1Cc1ccccc1Cc1ccccc1", "Activity": 0.33}
{"Molecule": "COC(=O)[C@@H]1CCCN1C(=O)Cc1ccc(OC)cc1", "Activity": 0.86}
{"Molecule": "CC(C)N1C(=O)CC[C@H]1C(=O)OC(C)(C)C", "Activity": 0.69}
{"Molecule": "O=C(O)[C@@H]1CCCN1C(=O)/C=C/c1ccccc1", "Activity": 0.76}
{"Molecule": "O=C(O)[C@@H]1CCC(=O)N1Cc1ccccc1", "Activity": 0.93}
{"Molecule": "O=C(O)[C@H]1CCC(=O)N1Cc1ccccc1", "Activity": 0.51}
{"Molecule": "CC(C)(C)[C@H]1OC(=O)[C@@]2(C3(O)CCCCC3)CCC(=O)N12", "Activity": 0.22}
{"Molecule": "CCOC(=O)[C@@H](NC(=O)OCc1ccccc1)C(O)C#C[Si](C)(C)C (some centres undefined)", "Activity": 1}
{"Molecule": "O=C(O)[C@@H]1CCC(=O)N1Cc1ccccc1Cl", "Activity": 0.51}
{"Molecule": "Cc1ccccc1CN1C(=O)CC[C@H]1C(=O)OC(C)(C)C", "Activity": 0.62}
{"Molecule": "CC(C)(C)[C@H]1OC(=O)[C@@]2([C@@H](O)c3ccccc3)CCC(=O)N12", "Activity": 0.27}
{"Molecule": "O=C(O)[C@@H]1CCCN1C(=O)Cc1ccccc1", "Activity": 0.38}
{"Molecule": "CC(C)(C)OC(=O)N[C@@H](CO)C(=O)O", "Activity": 0.72}
{"Molecule": "O=C(N[C@H](CO)C(=O)O)OCc1ccccc1", "Activity": 0.49}
{"Molecule": "COc1ccccc1CN1C(=O)CC[C@H]1C(=O)O", "Activity": 0.64}
{"Molecule": "Cc1ccccc1CN1C(=O)CC[C@H]1C(=O)O", "Activity": 0.89}
{"Molecule": "CCOC(=O)N1CCC[C@H]1C(=O)OC", "Activity": 0.64}
{"Molecule": "O=C1CC[C@@H](C(=O)O)N1 [PIDOLIC ACID]", "Activity": 0.75}
{"Molecule": "COC(=O)[C@@H]1CCC(=O)N1Cc1ccc(Cl)cc1", "Activity": 1.01}
{"Molecule": "CC(C)(C)[C@H]1OC(=O)[C@@H]2CCC(=O)N21", "Activity": 0.49}
{"Molecule": "O=C1N[C@H](C(=O)O)[C@H](/C=C/c2ccccc2)O1 (relative stereo)", "Activity": 1.07}
{"Molecule": "Cc1ccc(CN2C(=O)CC[C@H]2C(=O)OC(C)(C)C)cc1", "Activity": 0.52}
{"Molecule": "CC(C)(C)OC(=O)[C@@H]1CCC(=O)N1Cc1ccccc1Cl", "Activity": 0.27}
